Reported IC50 by item:
- system_name: KRas G12A (Homo sapiens, UniProt P01116, G12A);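 also: binding to KRas measured by TR-FRET displacement after one hour at room temperature, IC50 from a four-parameter fit of percent-of-control values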
- Sequence (P01116 1-169 isoform P01116-2 G12A): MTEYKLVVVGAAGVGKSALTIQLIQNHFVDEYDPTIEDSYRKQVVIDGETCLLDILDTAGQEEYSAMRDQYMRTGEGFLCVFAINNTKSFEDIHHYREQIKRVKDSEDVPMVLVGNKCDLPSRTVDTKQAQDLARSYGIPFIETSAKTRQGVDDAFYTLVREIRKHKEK
- experimental_details: biochemical
Field: numeric (nM). Do not append units.

In [3]: df
Out[3]:
                                   compound  measure_name  unit_abbreviation  value_measured
0  N#CCc1cccc2cccc(-c3ncc4c(N5CCCC6(CC(=O)N6)C5)nc(OCC56CCCN5CCC6)nc4c3F)c12 (centres unmarked)          IC50                 nM            5620
1  OC1CCC12CCCN(c1nc(OCC34CCCN3CCC4)nc3c(F)c(-c4cccc5cccc(F)c45)ncc13)C2 (centres unmarked)          IC50                 nM            2650
2  CCc1c(F)ccc2cccc(-c3ncc4c(N5CCCC6(CNC(=O)C6)C5)nc(OC[C@@]56CCCN5C[C@H](F)C6)nc4c3F)c12 (some centres unmarked)          IC50                 nM              52
3  O=S1(=O)NCCC2(CCCN(c3nc(OCC45CCCN4CCC5)nc4c(F)c(-c5cccc6cccc(F)c56)ncc34)C2)N1 (centres unmarked)          IC50                 nM            2110
4  O=S1(=O)CCCN1C1CCCN(c2nc(OCC34CCCN3CCC4)nc3c(F)c(-c4cccc5cccc(F)c45)ncc23)C1 (centres unmarked)          IC50                 nM            1980
5  Cc1cccc2cccc(-c3ncc4c(N5CCCC6(CC(=O)N6)C5)nc(OCC56CCCN5CCC6)nc4c3F)c12 (centres unmarked)          IC50                 nM             356
6  Cc1cc(N)nc(-c2ncc3c(N4CCCC(C)(O)C4)nc(OC[C@@]45CCCN4C[C@H](F)C5)nc3c2F)c1C(F)(F)F (some centres unmarked)          IC50                 nM             815
7  Fc1c(-c2cccc3cccc(F)c23)ncc2c(N3C[C@@H]4CC[C@@H](C4)C3)nc(OCC34CCCN3CCC4)nc12          IC50                 nM            7540

Requested read-out: IC50. Entry: NS(=O)(=O)CC1CCCN(c2nc(OCC34CCCN3CCC4)nc3c(F)c(-c4cccc5cccc(CF)c45)ncc23)C1 (centres unmarked)
760

Requested read-out: IC50. Entry: `Fc1c(-c2cccc3cccc(F)c23)ncc2c(NCc3ccc4nccn4c3)nc(OCC34CCCN3CCC4)nc12`
1300

Requested read-out: IC50. Entry: `Fc1c(-c2cccc3cccc(F)c23)ncc2c(Nc3ccc4[nH]ncc4c3)nc(OCC34CCCN3CCC4)nc12`
50400

Requested read-out: IC50. Entry: C#Cc1cccc2cccc(-c3ncc4c(N5CCCC(CS(N)(=O)=O)C5)nc(OCC56CCCN5CCC6)nc4c3F)c12 (centres unmarked)
1360

Requested read-out: IC50. Entry: `CCc1c(F)ccc2cccc(-c3ncc4c(N5CCC[C@@](C)(O)C5)nc(OCC56CCCN5CCC6)nc4c3F)c12`
38

Requested read-out: IC50. Entry: N#Cc1cccc2cccc(-c3ncc4c(N5CCCC6(C5)NC(=O)NC6=O)nc(OCC56CCCN5CCC6)nc4c3F)c12 (centres unmarked)
5620
